assay: CCTE_Shafer_MEA_dev_correlation_coefficient_mean: CCTE's Neural Network Formation Assay for Mean Correlation Coefficient, Shafer Lab (AID 2284093)
Activity calls are given as the source filed them. The calls were made as follows: active = hit-call score of the fitted dose curve at least 0.9, where 1 is the maximum; inactive = score below 0.9.
Your response should consist of one outcome taken from active, inactive

Ask | State the result this test recorded for c1ccc2c(c1)Cc1ccccc1-2 .
Reply | inactive

Ask | Status in this test for c1ccc2cc3c(ccc4ccccc43)cc2c1 ?
Reply | inactive

Ask | Recorded test call requested for CC1=C(/C=C/C(C)=C/C=C/C(C)=C/C(=O)O)C(C)(C)CCC1
Reply | active

Ask | How was CC(O)CO (stereo unspecified) classified in this test?
Reply | inactive

Ask | Record lookup: outcome of this test for OCCC(F)(F)C(F)(F)C(F)(F)C(F)(F)C(F)(F)C(F)(F)F ?
Reply | inactive

Ask | Hi, do you know how c1ccc2c(c1)ccc1ccccc12 came out in this test?
Reply | inactive
